System: PF3D7_0420300 AP2 domain 1 (GST-tagged)
Experiment: gcPBM binding intensity (ln(normalized median fluorescence intensity)); higher = stronger DNA binding
Whole data set: some 25,000 sequences, median “ln(normalized median fluorescence intensity)” near 9.3, cut for the highest 2% near 10. Only a selection was taken, and the highest values are over-represented in it overall.
The following sequences are shown together with reported gcPBM binding intensity (ln) values.
result.type: gcPBM binding intensity (ln)

# input.sequence, result.type, measured.result
records = [
    ("TTTTTTTTTTTTTTTTTTTTACCCCTTTTTCAAAAA [CACACA_negctrl_site1524]", "gcPBM binding intensity (ln)", 8.39),
    ("ATATATTTTATTCCTATATATATATATATATATATA [GTGCAC_negctrl_site556]", "gcPBM binding intensity (ln)", 9.27),
    ("CTATAAATGAATGTTTGTACTTAATAATAAAAGAAA [XGTACX_site3170]", "gcPBM binding intensity (ln)", 9.06),
    ("AAGAAAATTGTCTGAAGTACAAAACATTAATAATAT [XGTACX_site4864]", "gcPBM binding intensity (ln)", 9.27),
    ("AAAAAAAGTTATATTACACACTTTATTCGTTAACTT [CACACA_site3013]", "gcPBM binding intensity (ln)", 9.47),
    ("ATATTTACTCACGTCTTGCACTGAGCAAGCATTATA", "gcPBM binding intensity (ln)", 9.02),
    ("ATGTGTATAATTAAATGTACATATATATATATATAT [XGTACX_site829]", "gcPBM binding intensity (ln)", 9.52),
    ("TTGTACTACAATCCTTTATTTATTTAAACCTGTATG [CACACA_negctrl_site428]", "gcPBM binding intensity (ln)", 9.14),
    ("GAATAAAAAATTGGCACACATAAATATATGGATATA [CACACA_site3047]", "gcPBM binding intensity (ln)", 9.46),
]
